Data credit: patent US20140107109A1

# target-entity: Beta Secretase enzyme (BACE1) (Homo sapiens)
# method-description: In vitro enzymatic BACE FRET assay
# Type: biochemical
# details: average IC50, enzyme assay; read-out: BACE1 FRET assay IC50
parameter: pIC50
Bear in mind: pIC50 is minus log10 of a mol/L concentration; give just that figure.

// query State, in one line, measured pIC50 of COc1cnc2c(Nc3ccc(F)c([C@]4(CF)CS(=O)(=O)C5(CCC5)C(N)=N4)c3)nccc2n1 [Example 246]
// result 8.84

// query Please give measured pIC50 of the following entry: CC1(C)C(N)=N[C@](C)(c2cc(Sc3cc(C#N)ccn3)ccc2F)CS1(=O)=O [Example 440]
// result 6.25

// query Read off the recorded pIC50 for CC1(C)C(N)=N[C@](C)(c2cc(Nc3ncc(Br)c4cc(Cl)cnc34)ccc2F)CS1(=O)=O [Example 188]
// result 9.08

----------
# target-entity: Beta Secretase enzyme (BACE1) (Homo sapiens, UniProt P56817)
# Sequence (P56817 46-501): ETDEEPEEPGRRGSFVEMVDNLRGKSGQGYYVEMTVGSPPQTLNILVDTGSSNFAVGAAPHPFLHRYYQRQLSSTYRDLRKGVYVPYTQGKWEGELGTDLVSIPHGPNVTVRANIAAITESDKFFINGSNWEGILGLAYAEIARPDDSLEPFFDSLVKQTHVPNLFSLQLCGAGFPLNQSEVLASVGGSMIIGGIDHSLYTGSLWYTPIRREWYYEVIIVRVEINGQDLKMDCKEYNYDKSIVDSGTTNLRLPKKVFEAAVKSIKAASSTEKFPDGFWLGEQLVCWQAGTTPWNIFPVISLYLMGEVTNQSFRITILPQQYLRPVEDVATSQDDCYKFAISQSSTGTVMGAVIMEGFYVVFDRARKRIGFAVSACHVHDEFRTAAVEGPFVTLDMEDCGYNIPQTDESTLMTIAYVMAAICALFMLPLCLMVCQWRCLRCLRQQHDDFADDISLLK
# method-description: In vitro enzymatic BACE FRET assay
# Format: biochemical
# details: average IC50, enzyme assay; read-out: BACE1 FRET assay IC50
pIC50: −log10 of the molar value.
If the reported pIC50 equals or exceeds 9, assign true. If not, assign false.

Below are worked cases with known answers.
compound	label-value
CC1(C)C(N)=N[C@](CF)(c2cc(Nc3ncc(F)c4cc(OCC(F)(F)F)cnc34)ccc2F)CS1(=O)=O [Example 432]	false
CC1(C)C(N)=N[C@](C)(c2cc(NC(=O)c3cnc(OC(F)F)cn3)ccc2F)CS1(=O)=O [Example 344]	true
CC1(C)C(N)=N[C@](C)(c2cc(Nc3nccc4cc(OCC#N)cnc34)ccc2F)CS1(=O)=O [Example 420]	false

// query # check: pIC50 of COc1cnc2c(Nc3ccc(F)c([C@]4(CF)CS(=O)(=O)C5(CCC5)C(N)=N4)c3)nccc2c1 [Example 239] is greater than or equal to 9
// result false

// query Given the entry COc1cnc2c(Nc3ccc(F)c([C@@]4(C)N=C(N)C(C)(C)S(=O)(=O)C45CC5)c3)nccc2n1 [Example 250] , answer whether its pIC50 meets or surpasses 9.
// result false

// query Item CC1(C)C(N)=N[C@](C)(c2cc(Oc3cc(C#N)ccn3)ccc2F)CS1(=O)=O [Example 280] with pIC50 of 9 or above?
// result false

----------
# target-entity: Cathepsin D (Cat D) (Homo sapiens, UniProt P07339)
# Construct: Recombinant Cat D was expressed in CHO cells; made in house; host or cells: CHO cells
# Sequence (P07339 65-412, species assumed): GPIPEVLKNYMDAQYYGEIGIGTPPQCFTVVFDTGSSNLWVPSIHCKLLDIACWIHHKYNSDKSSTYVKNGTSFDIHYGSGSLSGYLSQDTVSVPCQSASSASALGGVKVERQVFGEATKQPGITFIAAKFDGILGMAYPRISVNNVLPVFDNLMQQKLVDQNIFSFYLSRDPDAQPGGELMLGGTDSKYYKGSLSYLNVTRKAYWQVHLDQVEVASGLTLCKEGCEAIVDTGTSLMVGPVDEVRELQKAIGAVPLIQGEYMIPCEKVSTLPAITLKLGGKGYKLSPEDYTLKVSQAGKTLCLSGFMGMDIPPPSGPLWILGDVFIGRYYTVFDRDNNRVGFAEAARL
# method-description: In vitro enzymatic Cathepsin D (Cat D) FRET assay
# Format: biochemical
# details: read-out: CatD IC50
parameter: IC50

molecule	IC50
C[C@]1(F)C(N)=N[C@](C)(c2cc(Nc3ncc(F)c4cc(C#N)cnc34)ccc2F)CS1(=O)=O [Example 179]	> 44.4 µM
COc1cnc2c(Nc3ccc(F)c(C4(C(F)F)CS(=O)(=O)C(C)(C)C(N)=N4)c3)nccc2c1 (stereo not drawn) [Example 62]	> 400 µM

// query Give the observed IC50 of COc1cnc(C(=O)Nc2ccc(F)c([C@]3(C)CS(=O)(=O)C(C)(C)C(N)=N3)n2)cn1 [Example 40] for Cathepsin D (Cat D) (Homo sapiens, UniProt P07339).
// result > 400 µM

----------
Catalogue of pIC50 readings, one per entry.
# target-entity: Cathepsin D (Cat D) (Homo sapiens)
# Construct: Recombinant Cat D was expressed in CHO cells; made in house; host or cells: CHO cells
# method-description: In vitro enzymatic Cathepsin D (Cat D) FRET assay
# Type: biochemical
# details: read-out: CatD IC50
The scale used: pIC50 is minus the common logarithm of the concentration in molar units.

CC1(C)C(N)=N[C@](C)(c2cc(Oc3cc(F)cc(C(F)(F)F)c3)ccc2F)CS1(=O)=O 4.25
C[C@]1(c2cc(NC(=O)c3ccc(Cl)cn3)ccc2F)N=C(N)C2(CCC2)S(=O)(=O)[C@@H]1F 3.79
Cc1cc(OC(F)F)cnc1C(=O)Nc1cnc(F)c([C@]2(C)CS(=O)(=O)C3(CC3)C(N)=N2)c1 3.97

// query Annotate the compound COc1cnc2c(Nc3ccc(F)c([C@]4(CF)CS(=O)(=O)C5(CCC5)C(N)=N4)c3)ncnc2c1 with its measured pIC50.
// result 3.92

// query Complete the entry with pIC50 for Cc1cc(Cl)cnc1C(=O)Nc1ccc(F)c([C@]2(CF)CS(=O)(=O)C(C)(C)C(N)=N2)c1
// result 3.87

// query Provide only the value of recorded pIC50 for C#Cc1cnc(Nc2ccc(F)c([C@]3(C)CS(=O)(=O)C(C)(C)C(N)=N3)c2)c2ncc(Cl)cc12
// result 4.19

// query Supply recorded pIC50 for CC1(C)C(N)=N[C@](C)(c2cc(Nc3cc(Cl)cc4cc(Cl)cnc34)ccc2F)CS1(=O)=O here.
// result 4.86

// query Could you please provide reported pIC50 for Cc1cc(OC(F)F)cnc1C(=O)Nc1cnc(F)c([C@]2(C)CS(=O)(=O)C(C)(C)C(N)=N2)c1 ? Thanks!
// result 3.81

// query Input C[C@]1(F)C(N)=N[C@](C)(c2cc(NC(=O)c3cnc(OCC(F)(F)F)cn3)ccc2F)CS1(=O)=O , output reported pIC50.
// result 2.90

// query Note down pIC50 recorded for CC1(C)C(N)=N[C@](C)(c2cc(Oc3ccc4ccccc4n3)ccc2F)CS1(=O)=O
// result 4.23

----------
# target-entity: Cathepsin D (Cat D) (Homo sapiens)
# Construct: Recombinant Cat D was expressed in CHO cells; made in house; host or cells: CHO cells
# method-description: In vitro enzymatic Cathepsin D (Cat D) FRET assay
# Assay type: biochemical
# details: read-out: CatD IC50
parameter: IC50 (µM)
// return numeric value only (unit: µM, not printed)

molecule	target-entity	parameter	result-unit	result-value
CC1(C)C(N)=N[C@](C)(c2cc(NC(=O)c3ncc(C#N)cc3Cl)ccc2F)CS1(=O)=O [Example 356]	Cathepsin D (Cat D) (Homo sapiens)	IC50	µM	710
COc1cnc(C(=O)Nc2ccc(F)c([C@@]3(C)N=C(N)C4(CCC4)S(=O)(=O)[C@@H]3F)c2)c(C)c1 [Example 137]	Cathepsin D (Cat D) (Homo sapiens)	IC50	µM	81.3
CC1(C)C(N)=N[C@](C)(c2cc(NC(=O)c3ccc(C(F)F)cn3)cnc2F)CS1(=O)=O [Example 404]	Cathepsin D (Cat D) (Homo sapiens)	IC50	µM	247

Note: attention shifts to another entry.
// query Provide only the value of recorded IC50 for CC1(C)C(N)=N[C@](C)(c2cc(Nc3nccc4nc(OCC(F)(F)F)cnc34)ccc2F)CS1(=O)=O [Example 442]
// result 389

----------
# Test system: Aβ40 in conditioned medium of cells stably expressing Amyloid Precursor Protein (APP)
# method-description: In vitro BACE cell-based assay (HEK cell assay), Aβ40 sandwich ELISA
# details: Homo sapiens, HEK293
Decision: IC50 beneath 20 nM gives rule met; IC50 meeting or exceeding 20 nM gives rule not met.

// query # strict comparison: is reported IC50 < 20 nM? input = Cc1cc(Cl)cnc1C(=O)Nc1ccc(F)c([C@]2(C)CS(=O)(=O)C3(CC(F)(F)C3)C(N)=N2)c1
// result rule not met

----------
# target-entity: Cathepsin D (Cat D) (Homo sapiens, UniProt P07339)
# Construct: Recombinant Cat D was expressed in CHO cells; made in house; host or cells: CHO cells
# method-description: In vitro enzymatic Cathepsin D (Cat D) FRET assay
# Format: biochemical
# details: read-out: CatD IC50
Reported pIC50 values are given for each entry in this list.
Remember the convention: pIC50 equals -log10 of concentration in molar.

Answered examples (6):
Cc1cc(OCC2CCC2)cnc1C(=O)Nc1ccc(F)c([C@]2(CF)CS(=O)(=O)C(C)(C)C(N)=N2)c1 3.63
CC1(C)C(N)=N[C@](C)(c2cc(Oc3ccc(F)cn3)ccc2F)CS1(=O)=O 3.44
CCc1cc(Cl)cnc1C(=O)Nc1ccc(F)c([C@]2(CF)CS(=O)(=O)C(C)(C)C(N)=N2)c1 3.38
C[C@@]1(c2cc(Br)ccc2F)CS(=O)(=O)[C@]2(C[C@@H](F)C2)C(N)=N1 4.51
Cc1c(C(F)(F)F)ccnc1Oc1ccc(F)c([C@]2(C)CS(=O)(=O)C(C)(C)C(N)=N2)c1 3.40
COc1ccnc(Oc2ccc(F)c([C@]3(C)CS(=O)(=O)C(C)(C)C(N)=N3)c2)n1 3.56

# input for lookup
// query // output pIC50; input CC1(C)C(N)=N[C@](C)(c2cc(Sc3ncccc3F)ccc2F)CS1(=O)=O ; system Cathepsin D (Cat D) (Homo sapiens, UniProt P07339)
// result 3.67

----------
Property: IC50; scope: individual compounds
# target-entity: Beta Secretase enzyme (BACE1) (Homo sapiens, UniProt P56817)
# method-description: In vitro enzymatic BACE FRET assay
# Format: biochemical
# details: read-out: BACE1 FRET assay IC50
Answer with a number only, understood to be in nM.

Use these answered entries as a reference point.
Cc1cc(OC(F)F)cnc1C(=O)Nc1ccc(F)c([C@]2(C)CS(=O)(=O)C(C)(C)C(N)=N2)c1 0.6
COc1cnc(C(=O)Nc2ccc(F)c([C@]3(C)CS(=O)(=O)CC(N)=N3)c2)cn1 14.9

// query Input CC1(C)C(N)=N[C@](C)(c2cc(Nc3nccc4cc(Cl)cnc34)ccc2F)CS1(=O)=O , output reported IC50.
// result 0.59

// query Give the reported IC50 for this compound. CCc1c(C(=O)Nc2ccc(F)c([C@]3(CF)CS(=O)(=O)C(C)(C)C(N)=N3)c2)nc2ccc(Cl)cn12
// result 8.3

// query Annotate the compound CC1(C)C(N)=N[C@](C)(c2cc(Nc3ncc(F)c4cc(Cl)cnc34)ccc2F)CS1(=O)=O with its measured IC50.
// result 0.56

// query Indicate the recorded IC50 value for this compound: COc1ccc(C(=O)Nc2ccc(F)c([C@]3(C)CS(=O)(=O)C(C)(C)C(N)=N3)c2)nc1
// result 1.5

// query Return the recorded IC50 value; entry: CC1(C)C(N)=N[C@](C)(c2cc(Nc3ncnc4cc(C#N)cnc34)cnc2F)CS1(=O)=O
// result 6.36
